STUDY_TARGET: GSPT1 (Homo sapiens, UniProt P15170)
Construct: Whole cell extracts were prepared using RIPA buffer according to manufacturer's protocol (Pierce); endogenous in cells
Sequence (P15170 whole entry): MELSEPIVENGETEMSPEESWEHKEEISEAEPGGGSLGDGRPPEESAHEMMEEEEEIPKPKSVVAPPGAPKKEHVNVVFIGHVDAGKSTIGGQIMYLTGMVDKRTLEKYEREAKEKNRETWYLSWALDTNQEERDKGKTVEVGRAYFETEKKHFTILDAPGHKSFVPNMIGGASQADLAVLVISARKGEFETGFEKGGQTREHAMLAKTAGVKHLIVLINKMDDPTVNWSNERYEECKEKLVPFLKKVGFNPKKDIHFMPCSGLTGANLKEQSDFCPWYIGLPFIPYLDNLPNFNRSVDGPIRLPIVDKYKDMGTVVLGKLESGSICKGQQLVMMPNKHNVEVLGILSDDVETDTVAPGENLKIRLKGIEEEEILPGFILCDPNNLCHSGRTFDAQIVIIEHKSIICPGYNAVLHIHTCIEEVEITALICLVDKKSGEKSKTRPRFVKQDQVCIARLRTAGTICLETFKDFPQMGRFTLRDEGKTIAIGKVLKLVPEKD
Sequence (Q96SW2 whole entry, further chain): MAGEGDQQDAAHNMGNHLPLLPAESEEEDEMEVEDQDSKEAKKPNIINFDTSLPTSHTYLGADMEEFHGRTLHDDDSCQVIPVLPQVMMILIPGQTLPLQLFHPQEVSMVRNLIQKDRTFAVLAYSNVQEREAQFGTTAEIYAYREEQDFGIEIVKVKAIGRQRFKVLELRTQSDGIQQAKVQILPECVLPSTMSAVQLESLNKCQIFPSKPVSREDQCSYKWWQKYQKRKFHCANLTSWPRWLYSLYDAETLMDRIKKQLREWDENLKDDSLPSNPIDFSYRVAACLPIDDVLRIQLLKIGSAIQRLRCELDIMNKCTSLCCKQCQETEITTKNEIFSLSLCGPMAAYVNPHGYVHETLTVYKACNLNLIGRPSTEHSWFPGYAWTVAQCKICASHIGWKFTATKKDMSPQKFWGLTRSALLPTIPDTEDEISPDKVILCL
Sequence (Q16531 whole entry partner): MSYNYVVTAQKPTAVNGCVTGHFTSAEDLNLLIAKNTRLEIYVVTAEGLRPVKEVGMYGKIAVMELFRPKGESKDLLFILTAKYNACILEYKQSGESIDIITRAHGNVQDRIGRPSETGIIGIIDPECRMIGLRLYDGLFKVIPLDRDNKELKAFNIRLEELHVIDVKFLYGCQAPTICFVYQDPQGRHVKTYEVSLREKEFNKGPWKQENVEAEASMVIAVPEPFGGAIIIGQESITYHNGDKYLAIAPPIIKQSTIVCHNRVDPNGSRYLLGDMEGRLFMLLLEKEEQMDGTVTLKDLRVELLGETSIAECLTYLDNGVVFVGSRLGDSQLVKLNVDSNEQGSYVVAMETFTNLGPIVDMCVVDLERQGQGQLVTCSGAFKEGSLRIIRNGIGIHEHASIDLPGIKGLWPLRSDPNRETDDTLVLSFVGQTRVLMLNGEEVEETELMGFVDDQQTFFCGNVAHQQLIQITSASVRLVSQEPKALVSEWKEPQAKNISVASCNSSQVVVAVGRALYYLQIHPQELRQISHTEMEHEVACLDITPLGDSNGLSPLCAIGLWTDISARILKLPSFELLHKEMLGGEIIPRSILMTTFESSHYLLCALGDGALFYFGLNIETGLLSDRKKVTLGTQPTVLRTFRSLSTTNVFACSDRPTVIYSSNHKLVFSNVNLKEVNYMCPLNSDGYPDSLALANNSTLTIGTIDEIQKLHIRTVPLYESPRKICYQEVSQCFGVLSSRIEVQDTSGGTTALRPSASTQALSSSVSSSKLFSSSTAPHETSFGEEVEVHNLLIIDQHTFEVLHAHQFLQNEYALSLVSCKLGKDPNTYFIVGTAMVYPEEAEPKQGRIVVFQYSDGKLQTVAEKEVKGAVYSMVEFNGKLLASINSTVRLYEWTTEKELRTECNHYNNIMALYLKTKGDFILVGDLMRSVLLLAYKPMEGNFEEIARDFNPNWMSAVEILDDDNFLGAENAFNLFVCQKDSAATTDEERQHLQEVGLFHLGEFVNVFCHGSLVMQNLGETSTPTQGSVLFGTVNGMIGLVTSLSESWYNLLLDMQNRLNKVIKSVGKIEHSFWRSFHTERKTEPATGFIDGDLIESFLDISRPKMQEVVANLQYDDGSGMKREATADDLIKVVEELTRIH
PROCEDURE_DETAILS: GSPT1 protein levels by Western Blot analysis
Type: cell-based
CONDITION_DESCRIPTION: 100 nM compound concentration; DMSO = 100.00
# key: entry, value: remaining activity at 0.1 µM
READOUT_NAME: remaining activity at 0.1 µM (%)

{"columns": ["MOLECULE", "ENDPOINT_UNIT", "REPORTED"],
 "data": [
  ["Cc1ccc(NC(=O)NCc2scc3c2CN(C2CCC(=O)NC2=O)C3=O)cc1C(F)(F)F (stereo not shown)", "%", 2.25],
  ["Cc1ccc(NC(=O)NCc2scc3c2CN([C@H]2CCCC(=O)NC2=O)C3=O)cn1", "%", 124],
  ["Cc1ccc(NC(=O)NCc2csc3c2CN([C@H]2CCCC(=O)NC2=O)C3=O)cc1Cl", "%", 90.3],
  ["Cc1ccc(NC(=O)NCc2scc3c2CN([C@H]2CCCC(=O)NC2=O)C3=O)nc1Cl", "%", 265]
]}
